// provenance: PubChem BioAssay

- TEST SYSTEM: Fibroblast growth factor 10 (Homo sapiens)
- ASSAY EXPLANATION: FGF10 binders on small-molecule microarrays, primary screen, biochemical, small-molecule microarray, 635 nm fluorescence (AID 1102)
- STUDY CONDITIONS: FGF10 binding, fluorescence 635 nm, higher = more signal
Classification field: enter true (1) for composite z-score values not below 0.5, false (0) for values below it.

COMPOUND	CAT
C=CC1c2cc(O)c(OC)cc2CCN1Cc1cc2c(cc1Br)OCO2 (centres undefined)	false (0)
COC(=O)c1c(CC[C@@H](CO)NC(=O)N[C@H](Cn2cc(C3(O)CCCCC3)nn2)C(C)C)oc(C(C)=O)c1C(=O)OC	true (1)
NC(=O)NCC#Cc1ccc2c(c1)[C@]1(C(=O)N2)[C@H](C(=O)O)[C@H]2C(=O)O[C@H](c3ccccc3)[C@H](c3ccccc3)N2[C@@H]1c1ccc(OCCO)cc1	false (0)
C=CCC(OC(C)=O)[C@@H]1[C@@H](N(Cc2cc3ccccc3o2)C(=O)Cc2ccc(F)cc2)c2cc(OCCCO)ccc2N1C(=O)c1ccc2ccccc2c1 (some centres undefined)	false (0)
CC(CO)N1C(=O)[C@@H]2[C@H]3C(=O)OCC=C[C@H]3OC23C=CCN(C(C)(C)C)C(=O)[C@@H]13 (some centres undefined)	false (0)

Query string: Hi team, for Cc1ccccc1C(O)C1C=CC2C(=O)N(C)C(=O)C2N1N(c1ccccc1)c1ccccc1 (centres undefined) , is the recorded composite z-score at or above 0.5?
Result string: false (0)

Query string: One more compound: `C[N+](C)(C)CCCCCCNC(=O)[C@H]1C[C@H]2C(=O)N[C@@H](Cc3ccccc3)C(=O)N2[C@H]1c1ccc(O)cc1`
Result string: true (1)

Query string: One more compound: `CC(C)Cc1ccc(CN2CC[C@@H](NC(=O)Nc3ccccc3)C2)cc1`
Result string: false (0)

Query string: One more compound: `COCCOC(=O)N1C(=O)[C@@]2(c3cc(C#CC4=CCCCC4)ccc31)[C@H](c1ccccc1OCCO)N1[C@H](c3ccccc3)[C@H](c3ccccc3)OC(=O)[C@H]1[C@@H]2C(=O)Nc1nc2ccccc2s1`
Result string: true (1)

Query string: One more compound: CCCCCCCCCCC(O)C1C=CC2C(=O)N(C)C(=O)C2N1Nc1ccc([N+](=O)[O-])cc1[N+](=O)[O-] (centres undefined)
Result string: false (0)

Query string: One more compound: `CCCCC=C[C@@H](NC(=O)c1ccc(-c2ccccc2)cc1)c1ccccc1`
Result string: false (0)

Query string: One more compound: `C=C(COC)/C(=C/C[C@H](OC(=O)c1ccncc1)c1ccccc1OCCO)c1cnc2ccccc2c1`
Result string: true (1)

Query string: One more compound: `C=CCOC(=O)[C@H]1[C@@H]2C(=O)O[C@@H](c3ccccc3)[C@@H](c3ccccc3)N2[C@@H](c2ccc(OCCOC(=O)[C@@H]3C[C@@H]4C(=O)N5CCC[C@H]5C(=O)N4[C@@H]3c3ccc(O)cc3)cc2)[C@]12C(=O)Nc1ccc(I)cc12`
Result string: true (1)
